assay: Plasma pharmacokinetics by validated LC–MS/MS; type: in vivo, human; details: human, plasma, oral, 0.3 mg, GM AUCinf, MAD part (day 14); 0.3 mg QD; n = 5
attribute.measured: AUC(0-inf) (ng·h/mL)
Provide the reading as a plain figure in ng·h/mL.

Prompt: Item "CC#CC(=O)N[C@H]1CCCN(c2c(F)cc(C(N)=O)c3[nH]c(C)c(C)c23)C1" has what recorded AUC(0-inf)?
Response: 3.7

====

assay: Plasma pharmacokinetics by validated LC–MS/MS; format: in vivo, human; conditions: human, plasma, oral, 1 mg, Median Tmax, SAD part (day 1); 1 mg; n = 6
attribute.measured: Tmax (min)
Provide the reading as a plain figure in min.

Prompt: Item "CC#CC(=O)N[C@H]1CCCN(c2c(F)cc(C(N)=O)c3[nH]c(C)c(C)c23)C1" has what recorded Tmax?
Response: 30
